- tested-target: UniProt:O43488
pKd: −log10 of the molar value.
Lab note: compare pKd against 5. Equal or greater, write 1. Smaller, write 0.

Ask: Confirm if pKd reported for the compound Clc1ccc(COC(Cn2ccnc2)c2ccc(Cl)cc2Cl)c(Cl)c1 (centres unmarked) [miconazole] is 5 or above.
Result: 0

Ask: Evaluate CCC(C)n1ncn(-c2ccc(N3CCN(c4ccc(OCC5COC(Cn6cncn6)(c6ccc(Cl)cc6Cl)O5)cc4)CC3)cc2)c1=O (centres unmarked) [itraconazole] : pKd at minimum 5?
Result: 1

Ask: Reported pKd at or above 5? C[C@@H](c1ncncc1F)[C@](O)(Cn1cncn1)c1ccc(F)cc1F [voriconazole]
Result: 1

Ask: Does the compound O=Cc1ccccc1C(=O)O [2-CBA, 2-carboxybenzaldehyde] have recorded pKd that is 5 or more?
Result: 0

* * *

- tested-target: human AKR7A2 (Homo sapiens, UniProt O43488)
- Construct: made in house; host or cells: E. coli BL21 (DE3) pLysS, pET-28a vector
- Sequence (O43488 39-359): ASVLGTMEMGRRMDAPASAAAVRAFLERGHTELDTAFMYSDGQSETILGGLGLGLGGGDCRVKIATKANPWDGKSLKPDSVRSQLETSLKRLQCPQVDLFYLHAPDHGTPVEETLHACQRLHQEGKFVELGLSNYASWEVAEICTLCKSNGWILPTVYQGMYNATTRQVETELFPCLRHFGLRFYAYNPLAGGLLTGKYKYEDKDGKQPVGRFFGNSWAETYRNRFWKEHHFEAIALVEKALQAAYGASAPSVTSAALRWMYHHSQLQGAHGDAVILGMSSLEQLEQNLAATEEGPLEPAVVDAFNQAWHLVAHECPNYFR
- method-description: Steady-state kinetics of AKR7A2 catalyzing 2-CBA in the absence or presence of azole drugs
- Format: biochemical
- experimental-parameters: substrate 2-CBA; drug concentration 50 μM
Exercise: for every item that follows, state its recorded kcat.
Give bare numbers, in s⁻¹.

CC(=O)N1CCN(c2ccc(OCC3COC(Cn4ccnc4)(c4ccc(Cl)cc4Cl)O3)cc2)CC1 (stereo not shown) [ketoconazole]	1.271
Clc1ccc(COC(Cn2ccnc2)c2ccc(Cl)cc2Cl)cc1 (stereo not shown) [econazole]	1.262
OC(Cn1cncn1)(Cn1cncn1)c1ccc(F)cc1F [fluconazole]	1.221
C[C@@H](c1ncncc1F)[C@](O)(Cn1cncn1)c1ccc(F)cc1F [voriconazole]	1.237
CCC(C)n1ncn(-c2ccc(N3CCN(c4ccc(OCC5COC(Cn6cncn6)(c6ccc(Cl)cc6Cl)O5)cc4)CC3)cc2)c1=O (stereo not shown) [itraconazole]	1.107
Clc1ccc(COC(Cn2ccnc2)c2ccc(Cl)cc2Cl)c(Cl)c1 (stereo not shown) [miconazole]	1.236

Kindly review the next compound as well.
CC[C@@H]([C@H](C)O)n1ncn(-c2ccc(N3CCN(c4ccc(OC[C@@H]5CO[C@@](Cn6cncn6)(c6ccc(F)cc6F)C5)cc4)CC3)cc2)c1=O [posaconazole] tested on human AKR7A2 (Homo sapiens, UniProt O43488) gave kcat: 1.029

* * *

Answer each item with its documented increment of kcat/Km compared with the absence of the drug.
- tested-target: human AKR7A2 (Homo sapiens)
- Construct: made in house; host or cells: E. coli BL21 (DE3) pLysS, pET-28a vector
- method-description: Steady-state kinetics of AKR7A2 catalyzing 2-CBA in the absence or presence of azole drugs
- Type: biochemical
- experimental-parameters: substrate 2-CBA; highest concentration of drug (50 μM; fluconazole 100 μM)
Please state the value followed by its unit.

CCC(C)n1ncn(-c2ccc(N3CCN(c4ccc(OCC5COC(Cn6cncn6)(c6ccc(Cl)cc6Cl)O5)cc4)CC3)cc2)c1=O (stereo not shown)	35%
CC[C@@H]([C@H](C)O)n1ncn(-c2ccc(N3CCN(c4ccc(OC[C@@H]5CO[C@@](Cn6cncn6)(c6ccc(F)cc6F)C5)cc4)CC3)cc2)c1=O	74%
OC(Cn1cncn1)(Cn1cncn1)c1ccc(F)cc1F	64%

The compound identified as Clc1ccc(COC(Cn2ccnc2)c2ccc(Cl)cc2Cl)c(Cl)c1 (stereo not shown) registered its increment of kcat/Km compared with the absence of the drug at 67%
